- Measured On: TPK enzyme (Homo sapiens (Human), UniProt Q9H3S4)
- Sequence (Q9H3S4 whole entry): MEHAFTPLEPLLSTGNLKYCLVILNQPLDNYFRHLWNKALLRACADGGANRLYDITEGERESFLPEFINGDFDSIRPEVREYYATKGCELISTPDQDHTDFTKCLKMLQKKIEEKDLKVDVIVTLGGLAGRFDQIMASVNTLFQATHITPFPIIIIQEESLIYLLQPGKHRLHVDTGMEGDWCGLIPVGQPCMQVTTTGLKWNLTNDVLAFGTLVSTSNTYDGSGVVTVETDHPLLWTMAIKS
- Test Name: TPK enzyme activity test
- Assay Context: promoting effect on TPK enzyme activity

| Compound | EC50 / µM |
| --- | --- |
| Cc1ccc2[nH]c3c(=O)n(CCC(=O)N4CCN(c5ccc(Cl)cc5Cl)CC4)cnc3c2c1 | 2.32 |
| Cc1ccc2[nH]c3c(=O)n(CCC(=O)N4CCN(c5cccc(C)c5C)CC4)cnc3c2c1 | 3.3 |
| O=C(CCn1cnc2c([nH]c3ccc(C(F)(F)F)cc32)c1=O)N1CCN(Cc2cc(F)c(F)c(F)c2)CC1 | 1.68 |
| O=C1Cc2ccc(OCCCN3c4ccccc4Sc4ccccc43)cc2N1 | 1.11 |
| Cc1ccc2c(c1)-c1ncn(CCCC(=O)N3CCCC(Cc4ccc(F)cc4)C3)c(=O)c1CC2 (stereo not drawn) | 1.33 |
| COc1ccc2[nH]c(=O)c3c(ccn3CCCN3CCN(c4cccc(C(F)(F)F)c4)CC3)c2c1 | 1.8 |
| Cc1cccc2[nH]c3c(=O)n(CCC(=O)N4CCN(c5cccc(C(F)(F)F)c5)CC4)cnc3c12 | 1.07 |
| Cc1ccc2c(c1)[nH]c1c(=O)n(CCC(=O)N3CCN(c4cc(Cl)ccc4Cl)CC3)cnc12 | 2.44 |
| Cc1ccc2c(c1)-c1ncn(CCC(=O)N3CCN(c4cccc(C(F)(F)F)c4)CC3)c(=O)c1CC2 | 1.13 |
| Cc1ccc2[nH]c3c(=O)n(CCC(=O)NCc4cccc(C(F)(F)F)c4)cnc3c2c1 | 1.01 |
| Cc1ccc2[nH]c3c(=O)n(CCC(=O)N4CCN(c5cccc(C(F)(F)F)c5)CC4)cnc3c2c1 | 1.21 |
| O=C1c2ccccc2CN1CCCN1c2ccccc2Sc2ccccc21 | 1.2 |

Origin of the recorded values: patent US20250388584A1
